Parameter melting point: see the listing below.

COc1ccc(-c2cccc(Nc3nccc(-c4sc(N)nc4-c4ccccc4)n3)c2)cc1OC; 236 to 237 °C
Nc1nc(-c2ccccc2)c(-c2ccnc(Nc3cccc(Cl)c3)n2)s1; 243 to 245 °C
Nc1nc(-c2ccccc2)c(-c2ccnc(Nc3cccc(CO)c3)n2)s1; 214 to 215 °C

// returns reported melting point for input CN1CCN(c2nc(-c3ccccc3)c(-c3ccnc(Nc4ccccc4)n3)s2)CC1 239 to 240 °C

Now the compound Nc1nc(-c2ccccc2)c(-c2ccnc(Nc3cccc(F)c3)n2)s1 243 to 245 °C
